measuredOn: β1-receptors of the heart (Canis lupus familiaris)
Construct: from tissue; host or cells: heart (left ventricle) of the living anaesthetised mongrel dog
procedureDetails: Blocking of Isoproterenol-induced increase of maximum rate of left-ventricular pressure rise (Dp/dt max.) in anaesthetised dogs (β1-receptor inhibition)
Type: in vivo, mongrel dogs
conditionDescription: relative ED 50; Practolol = 100; lower = more active
Relative β1-receptor inhibition (reference substance = 100) listing for selected compounds.
observedProperty: Relative β1-receptor inhibition (reference substance = 100)

> print(dat)
                                   compound  numericresult
1  CCCCCOc1ccc(OCC(O)CNC(C)CC(O)c2ccc(C)nc2)cc1 (stereo not drawn)           29.9
2  CC(=O)Nc1ccc(OCC(O)CNC(C)C)cc1 (stereo not drawn) [reference compound]            100
3  CCCOc1ccc(OCC(O)CNC(C)CC(O)c2ccc(C)nc2)cc1 (stereo not drawn)            4.6
4  CC(=O)Nc1ccc(OCC(O)CNC(C)CC(O)c2ccc(C)nc2)cc1 (stereo not drawn)           5.04
5  Cc1ccc(C(O)CC(C)NCC(O)COc2ccc(Br)cc2)cn1 (stereo not drawn)           31.1
6  CCCCOc1ccc(OCC(O)CNC(C)CC(O)c2ccc(C)nc2)cc1 (stereo not drawn)           28.2

* * *

measuredOn: β1-receptors of the heart (Canis lupus familiaris, UniProt P79148)
Construct: from tissue; host or cells: heart (left ventricle) of the living anaesthetised mongrel dog
Sequence (P79148 whole entry): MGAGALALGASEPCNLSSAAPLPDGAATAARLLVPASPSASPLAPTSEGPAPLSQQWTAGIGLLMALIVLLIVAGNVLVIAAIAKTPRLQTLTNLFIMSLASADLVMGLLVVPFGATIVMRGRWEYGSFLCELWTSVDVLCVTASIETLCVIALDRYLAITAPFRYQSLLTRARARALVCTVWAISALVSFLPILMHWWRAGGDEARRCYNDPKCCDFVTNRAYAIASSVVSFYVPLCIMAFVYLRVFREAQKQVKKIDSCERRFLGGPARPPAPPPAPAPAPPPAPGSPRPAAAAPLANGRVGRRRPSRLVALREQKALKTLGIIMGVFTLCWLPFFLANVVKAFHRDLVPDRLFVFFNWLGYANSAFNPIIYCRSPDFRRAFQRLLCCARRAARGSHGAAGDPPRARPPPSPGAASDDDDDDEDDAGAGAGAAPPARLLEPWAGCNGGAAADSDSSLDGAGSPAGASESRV
procedureDetails: Blocking of Isoproterenol-induced increase of maximum rate of left-ventricular pressure rise (Dp/dt max.) in anaesthetised dogs (β1-receptor inhibition)
Type: in vivo, mongrel dogs
conditionDescription: relative cardioselectivity factor; Practolol = 1
observedProperty: Quotient, on basis of reference substance = 1

> print(dat)
                                   compound  numericresult
1  CCCOc1ccc(OCC(O)CNC(C)CC(O)c2ccc(C)nc2)cc1 (centres unmarked)            1.5
2  CCCCOc1ccc(OCC(O)CNC(C)CC(O)c2ccc(C)nc2)cc1 (centres unmarked)            4.4
3  CC(=O)Nc1ccc(OCC(O)CNC(C)C)cc1 (centres unmarked) [reference compound]              1
4  CCCCCOc1ccc(OCC(O)CNC(C)CC(O)c2ccc(C)nc2)cc1 (centres unmarked)            1.2
5  CC(=O)Nc1ccc(OCC(O)CNC(C)CC(O)c2ccc(C)nc2)cc1 (centres unmarked)            1.5

* * *

measuredOn: β1-receptors of the heart (Canis lupus familiaris, UniProt P79148)
Construct: from tissue; host or cells: heart (left ventricle) of the living anaesthetised mongrel dog
procedureDetails: Blocking of Isoproterenol-induced increase of maximum rate of left-ventricular pressure rise (Dp/dt max.) in anaesthetised dogs (β1-receptor inhibition)
Format: in vivo, mongrel dogs
conditionDescription: measure of cardioselective action; higher = better
observedProperty: Quotient: ED 50 β2-receptor inhibition / ED 50 β1-receptor inhibition

> print(dat)
                                   compound                                measuredon  numericresult
1  CCCCCOc1ccc(OCC(O)CNC(C)CC(O)c2ccc(C)nc2)cc1 (centres unmarked)  β1-receptors of the heart (Canis lupus familiaris, UniProt P79148)            136
2  CC(=O)Nc1ccc(OCC(O)CNC(C)CC(O)c2ccc(C)nc2)cc1 (centres unmarked)  β1-receptors of the heart (Canis lupus familiaris, UniProt P79148)            165
3  CCCOc1ccc(OCC(O)CNC(C)CC(O)c2ccc(C)nc2)cc1 (centres unmarked)  β1-receptors of the heart (Canis lupus familiaris, UniProt P79148)            171
4  CC(=O)Nc1ccc(OCC(O)CNC(C)C)cc1 (centres unmarked) [reference compound]  β1-receptors of the heart (Canis lupus familiaris, UniProt P79148)            110
5  CCCCOc1ccc(OCC(O)CNC(C)CC(O)c2ccc(C)nc2)cc1 (centres unmarked)  β1-receptors of the heart (Canis lupus familiaris, UniProt P79148)            487

* * *

measuredOn: β1-receptors of the heart (Canis lupus familiaris, UniProt P79148)
Construct: from tissue; host or cells: heart (left ventricle) of the living anaesthetised mongrel dog
procedureDetails: Blocking of Isoproterenol-induced increase of maximum rate of left-ventricular pressure rise (Dp/dt max.) in anaesthetised dogs (β1-receptor inhibition)
Assay type: in vivo, mongrel dogs
conditionDescription: dog; intravenous; 50 % inhibition of reaction to Isoproterenol 0.5 gamma/kg i.v.; anaesthetised dogs; read-out: β1-receptor inhibition ED 50
hey, just use yes if measured ED50 is less than 0.06 mg/kg, otherwise no

> print(dat)
                                   compound  classification
1  CCCCCOc1ccc(OCC(O)CNC(C)CC(O)c2ccc(C)nc2)cc1 (stereo not drawn)             yes
2  CCCCOc1ccc(OCC(O)CNC(C)CC(O)c2ccc(C)nc2)cc1 (stereo not drawn)              no
3  Cc1ccc(C(O)CC(C)NCC(O)COc2ccc(Br)cc2)cn1 (stereo not drawn)              no
4  CCCOc1ccc(OCC(O)CNC(C)CC(O)c2ccc(C)nc2)cc1 (stereo not drawn)             yes
5  CC(=O)Nc1ccc(OCC(O)CNC(C)CC(O)c2ccc(C)nc2)cc1 (stereo not drawn)             yes
6  CC(=O)Nc1ccc(OCC(O)CNC(C)C)cc1 (stereo not drawn) [reference compound]              no

* * *

Relative β2-receptor inhibition (reference substance = 100) listing for selected compounds.
measuredOn: β2-receptors of the cardiovascular system (Canis lupus familiaris)
Construct: from tissue; host or cells: femoral vascular bed of the living anaesthetised mongrel dog
Sequence (P54833 whole entry): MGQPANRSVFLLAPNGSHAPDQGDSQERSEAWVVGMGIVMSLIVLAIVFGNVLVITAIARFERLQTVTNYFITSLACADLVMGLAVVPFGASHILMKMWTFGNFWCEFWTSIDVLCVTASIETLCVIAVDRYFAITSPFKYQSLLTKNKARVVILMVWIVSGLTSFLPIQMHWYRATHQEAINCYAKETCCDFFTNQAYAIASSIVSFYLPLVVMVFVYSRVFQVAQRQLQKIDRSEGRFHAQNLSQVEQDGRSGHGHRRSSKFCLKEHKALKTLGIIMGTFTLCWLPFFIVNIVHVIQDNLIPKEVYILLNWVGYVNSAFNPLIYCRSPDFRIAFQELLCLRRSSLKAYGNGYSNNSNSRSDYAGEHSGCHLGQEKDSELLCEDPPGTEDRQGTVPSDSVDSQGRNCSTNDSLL
procedureDetails: Blocking of Isoproterenol-induced alteration of peripheral perfusion of the femoral artery in anaesthetised dogs (β2-receptor inhibition)
Format: in vivo, mongrel dogs
conditionDescription: relative ED 50; Practolol = 100
observedProperty: Relative β2-receptor inhibition (reference substance = 100)

> print(dat)
                                   compound  numericresult
1  CC(=O)Nc1ccc(OCC(O)CNC(C)C)cc1 (centres unmarked) [reference compound]            100
2  CCCCOc1ccc(OCC(O)CNC(C)CC(O)c2ccc(C)nc2)cc1 (centres unmarked)          123.2
3  CCCOc1ccc(OCC(O)CNC(C)CC(O)c2ccc(C)nc2)cc1 (centres unmarked)            6.8
4  CCCCCOc1ccc(OCC(O)CNC(C)CC(O)c2ccc(C)nc2)cc1 (centres unmarked)           29.2
5  CC(=O)Nc1ccc(OCC(O)CNC(C)CC(O)c2ccc(C)nc2)cc1 (centres unmarked)            7.5
